These entries and their values trace back to BindingDB's records for doi:10.1016/j.bmcl.2018.08.039.

Biological target: Bromodomain-containing protein 4 (Homo sapiens, UniProt O60885)
Experiment: Displacement of biotinylated acetylated peptide from recombinant human partial length BRD4 long isoform bromodomain 1/2 (N44 to E460 residues) expressed in Escherichia coli BL21 measured after 1 hr by Bromoscan method
measuredQuantity: Kd (nM)
Report only the number, with the unit nM understood.

Answered examples (3):
1) Cc1noc(C)c1-c1ccc2nc(-c3ccc(CO)nc3)nc(NCc3cccc(Cl)c3)c2c1 :: 250
2) Cc1noc(C)c1-c1ccc2nc(-n3cc(CCO)cn3)nc(NCc3cccc(Cl)c3)c2c1 :: 140
3) CNc1nc(NCc2cccc(Cl)c2)c2cc(-c3c(C)noc3C)ccc2n1 :: 2900

Now turn to the next compound.
In: // fetch Kd given entry `Cc1noc(C)c1-c1ccc2nc(Cl)nc(NCc3cccc(Cl)c3)c2c1`
Out: 980
